system: HSkMC; assay: cytotoxicity call (relative viability < 0.9); settings: 10 µM
Out of some 39,000 compounds screened, about 1,500 (3.8%) were called active. The sample as a whole holds a higher share of actives than the screen did.
PROPERTY_LABEL: cytotoxicity call

c1cncc(-c2nc3ccc4ccccc4c3c3c2CCCC3)c1	inactive
CO[C@H](CN(C)S(=O)(=O)c1cccc(Cl)c1)[C@@H](C)CN([C@@H](C)CO)S(=O)(=O)c1cccc(Cl)c1	inactive
C=C1[N-]O[N+](O)=C1CN(Cc1c(C)no[n+]1[O-])OC(C)=O	inactive
C[C@H](CO)N1C[C@H](C)[C@@H](CN(C)C(=O)CCCN(C)C)OCCCC[C@H](C)Oc2ccc(NS(=O)(=O)c3cn(C)cn3)cc2C1=O	inactive
COCCCNC(=O)[C@@]1(Sc2ccc(C)cc2)CC(=O)N(Cc2ccccc2C(F)(F)F)[C@@H]1c1ccc(CO)cc1	inactive
CCC1OC(=O)C(C)C(=O)C(C)C(OC2OC(C)CC(N(C)C)C2O)C(C)(OC)CC(C)C(=O)C(C)C2N(CCCCn3cnc(-c4cccnc4)c3)C(=O)OC12C (stereo not drawn)	inactive
CC(C)CC#Cc1cnc2c(c1)C(=O)N([C@@H](C)CO)C[C@@H](C)[C@H](CN(C)S(=O)(=O)c1cn(C)cn1)O2	inactive

Would you kindly look at the next entry?
Recorded cytotoxicity call for COc1ccc(NC(=O)N(C)C[C@@H]2Oc3ncc(C#CCN(C)C)cc3C(=O)N([C@@H](C)CO)C[C@H]2C)cc1 on HSkMC was inactive

----------
test system: HSkMC; assay: cytotoxicity call (relative viability < 0.9); conditions: 10 µM
Out of some 39,000 compounds screened, about 1,500 (3.8%) were called active. The full list was thinned out, with actives kept by preference.
Could you please pick one outcome from this set? 1 for active, 0 for inactive

In this assay, the call recorded for COc1ccc(S(=O)(=O)Nc2cccc3c2O[C@@H](CN(C)Cc2ccc(-c4ccccc4)cc2)[C@H](C)CN([C@@H](C)CO)C3=O)cc1 was what? 0

In this assay, the call recorded for C[C@@H]1CN([C@H](C)CO)C(=O)c2cc(NC(=O)NC3CCCCC3)ccc2O[C@H]1CN(C)C(=O)Nc1cccc2ccccc12 was what? 0

In this assay, the call recorded for C[C@@H]1CN([C@@H](C)CO)C(=O)c2cc(NC(=O)NC3CCCCC3)ccc2O[C@@H]1CN(C)C(=O)Nc1cccc2ccccc12 was what? 1

In this assay, the call recorded for C[C@H]1CN([C@@H](C)CO)C(=O)c2cccc(NC(=O)c3cnccn3)c2O[C@@H]1CN(C)CC1CCCCC1 was what? 0

In this assay, the call recorded for C[C@@H]1CN([C@@H](C)CO)C(=O)c2cc(NC(=O)Nc3ccc(C(F)(F)F)cc3)ccc2O[C@@H](C)CCCCO[C@H]1CN(C)Cc1ccccc1 was what? 1

In this assay, the call recorded for O=C(C[C@@H]1CC[C@@H]2[C@H](COC[C@@H](O)CN2S(=O)(=O)c2ccccc2)O1)NCc1ccc2c(c1)OCO2 was what? 0

In this assay, the call recorded for C[C@H](CO)N1C[C@H](C)[C@@H](CN(C)C(=O)NC2CCCCC2)Oc2ccc(NC(=O)Nc3cccc4ccccc34)cc2C1=O was what? 0

In this assay, the call recorded for C[C@@H]1CN([C@@H](C)CO)C(=O)c2cc(NC(=O)NC3CCCCC3)ccc2O[C@H]1CN(C)C(=O)Nc1cccc2ccccc12 was what? 0

In this assay, the call recorded for C[C@@H]1CN([C@@H](C)CO)C(=O)c2cc(NC(=O)NC3CCCCC3)ccc2O[C@@H](C)CCCCO[C@H]1CN(C)C(=O)c1ccncc1 was what? 0

In this assay, the call recorded for CNC(=O)c1c(F)cccc1Nc1nc(Nc2cc3c(cc2OC)CCN3C(=O)CN(C)C)nc2[nH]ccc12 was what? 1

In this assay, the call recorded for CC[C@@H]1COCCC(=O)N1 was what? 0

In this assay, the call recorded for C[C@H]1CCCCO[C@@H](CN(C)Cc2ccccc2)[C@@H](C)CN([C@@H](C)CO)C(=O)c2cc(NC(=O)Nc3ccc(C(F)(F)F)cc3)ccc2O1 was what? 1

In this assay, the call recorded for Cc1noc(C)c1NC(=O)Nc1cccc2c1O[C@H](CN(C)Cc1ccc(Cl)c(Cl)c1)[C@H](C)CN([C@@H](C)CO)C2=O was what? 0

In this assay, the call recorded for C[C@@H]1CN([C@H](C)CO)C(=O)c2cccc(NC(=O)C3CCCCC3)c2O[C@H]1CN(C)Cc1ccc(Oc2ccccc2)cc1 was what? 0

In this assay, the call recorded for COc1cc(C(=O)N2CCC(N3CCN(C)CC3)CC2)ccc1Nc1ncc2c(n1)N(C)c1ccccc1C(=O)N2C was what? 0

----------
system: HSkMC; experiment: cytotoxicity call (relative viability < 0.9); details: 10 µM
Screen size: about 39,000 compounds; about 1,500 (3.8%) were called active. For the sample, actives were picked, then their nearest neighbours and some compounds at random.
Could you please pick one outcome from this set? Yes (active), No (inactive)

In this assay, the call recorded for C[C@@H]1CCCCO[C@H](CN(C)C(=O)Nc2ccc(C(F)(F)F)cc2)[C@@H](C)CN([C@@H](C)CO)C(=O)c2cc(NC(=O)Nc3ccc(C(F)(F)F)cc3)ccc2O1 was what? No

In this assay, the call recorded for C[C@H]1CCCCO[C@H](CN(C)C(=O)Nc2ccc(C(F)(F)F)cc2)[C@@H](C)CN([C@@H](C)CO)C(=O)c2cc(NC(=O)Nc3ccc(C(F)(F)F)cc3)ccc2O1 was what? No

In this assay, the call recorded for COC(CN(C)C(=O)c1cn(C)c2ccc(S(=O)(=O)N3CCOCC3)cc2c1=O)OC was what? No

In this assay, the call recorded for C[C@H](CO)N1C[C@H](C)[C@H](CN(C)C(=O)Nc2ccc(C(F)(F)F)cc2)OCCCC[C@H](C)Oc2ccc(NC(=O)Nc3ccc(C(F)(F)F)cc3)cc2C1=O was what? Yes

In this assay, the call recorded for C[C@@H]1CCCCO[C@@H](CN(C)C(=O)C2CCCCC2)[C@H](C)CN([C@@H](C)CO)C(=O)c2cc(NC(=O)Nc3ccc(C(F)(F)F)cc3)ccc2O1 was what? No

In this assay, the call recorded for CC(C)NC(=O)N(C)C[C@@H]1OCCCC[C@H](C)Oc2ccc(NC(=O)Nc3ccc(C(F)(F)F)cc3)cc2C(=O)N([C@H](C)CO)C[C@@H]1C was what? Yes

----------
test system: HSkMC; assay: cytotoxicity call (relative viability < 0.9); conditions: 10 µM
The whole screen tested about 39,000 compounds, of which about 1,500 (3.8%) were called active. The full list was thinned out, with actives kept by preference.
Could you please pick one outcome from this set? yes (1) (active), no (0) (inactive)

In this assay, the call recorded for C[C@@H]1CCCCO[C@H](CN(C)Cc2ccc3c(c2)OCO3)[C@H](C)CN([C@H](C)CO)C(=O)c2cc(NC(=O)Nc3ccccc3)ccc2O1 was what? no (0)

In this assay, the call recorded for C[C@@H]1CCCCO[C@H](CN(C)C(=O)c2ccccc2)[C@@H](C)CN([C@H](C)CO)C(=O)c2cc(NC(=O)C3CCCCC3)ccc2O1 was what? no (0)

In this assay, the call recorded for C=CC[C@H](CC(=O)N(CCO)Cc1ccccc1)C(=O)N[C@H](COC(=O)[C@H](CC=C)NC(=O)OCC1c2ccccc2-c2ccccc21)C(C)(C)C was what? no (0)

In this assay, the call recorded for O=C(N[C@H]1CC=CC[C@H](CC(=O)N(CCO)Cc2ccccc2)C(=O)N[C@@H](Cc2ccccc2)COC1=O)OCC1c2ccccc2-c2ccccc21 was what? yes (1)

In this assay, the call recorded for O=C(C[C@@H]1CC=CC[C@H](NC(=O)OCC2c3ccccc3-c3ccccc32)C(=O)OC[C@H](Cc2ccccc2)NC1=O)N[C@H](CO)Cc1ccccc1 was what? no (0)

In this assay, the call recorded for Cc1ccc(S(=O)(=O)N(C)C[C@@H]2OCCCC[C@@H](C)Oc3ccc(NC(=O)Nc4ccc(F)cc4)cc3C(=O)N([C@@H](C)CO)C[C@H]2C)cc1 was what? no (0)

----------
tested on: HSkMC (human skeletal muscle cells); test: cytotoxicity call (relative viability < 0.9); settings: 10 µM
Hit rate of the full screen: of about 39,000 compounds, about 1,500 (3.8%) were called active. The sample holds actives, similar compounds and a random draw of the others, so the mix is not that of the screen.
Could you please pick one outcome from this set? 1 (active), 0 (inactive)

In this assay, the call recorded for Cc1ccc(S(=O)(=O)Nc2ccc3c(c2)C(=O)N([C@@H](C)CO)C[C@H](C)[C@@H](CN(C)C(=O)Nc2ccc(F)cc2)OCCCC[C@H](C)O3)cc1 was what? 0

In this assay, the call recorded for C[C@@H]1CCCCO[C@@H](CN(C)Cc2ccc3c(c2)OCO3)[C@@H](C)CN([C@H](C)CO)C(=O)c2cc(NC(=O)Nc3cccc4ccccc34)ccc2O1 was what? 0

In this assay, the call recorded for Cc1ccc(S(=O)(=O)Nc2ccc3c(c2)C(=O)N([C@@H](C)CO)C[C@H](C)[C@@H](CN(C)C(=O)Nc2ccc(F)cc2)OCCCC[C@@H](C)O3)cc1 was what? 0

In this assay, the call recorded for Cc1ccc(S(=O)(=O)Nc2ccc3c(c2)C(=O)N([C@H](C)CO)C[C@@H](C)[C@H](CN(C)C(=O)Nc2ccc(F)cc2)OCCCC[C@@H](C)O3)cc1 was what? 1

In this assay, the call recorded for C[C@H]1CN([C@@H](C)CO)S(=O)(=O)c2ccc(C#Cc3ccc(F)cc3)cc2O[C@@H]1CN(C)C(=O)c1ccccn1 was what? 0

In this assay, the call recorded for Cc1ccc(S(=O)(=O)Nc2ccc3c(c2)C(=O)N([C@H](C)CO)C[C@H](C)[C@H](CN(C)C(=O)Nc2ccc(F)cc2)OCCCC[C@H](C)O3)cc1 was what? 0
